- PROCEDURE TEXT: TEAD-YAP interaction inhibition, primary screen, TEAD-YAP interaction inhibitor project, luminescence, HEK-TIYL cells (AID 1259422);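 note: 0% = median of test compound wells and 100% = reference inhibitor wells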
- TEST SETTINGS: TEAD-Gal4/YAP UAS-luciferase luminescence, at 9.12 µM, stronger effect = higher value
The campaign covered roughly 640,000 compounds. About 9,300 (1.5%) were called active. Shown is part of a subset that was picked to be rich in actives.
Record form. Attribute: inhibition. Fill in for each entry.
Give the value, in units of %, as a plain number.

query: I am curious: what inhibition value has been reported for O=C(Cc1ccsc1)N1CCC[C@@H]2CN(C/C=C/c3ccccc3)CC[C@H]21 ?
result: -4.71

query: Look up inhibition: O=C(CSCC(=O)Nc1ccc2ccccc2c1)NCC1CCCO1 (centres undefined)
result: -13.5

query: Given the compound Cc1cccc(NC(=O)/C=C/c2ccc(F)cc2)c1 , what is its reported inhibition?
result: 34.1

query: Give its inhibition value. Item: CCn1c(N=Nc2c(O)[nH]c3ccccc23)nc2c1c(=O)n(C)c(=O)n2C
result: 6.12

query: Look up inhibition: Cc1ccc(/C=C2/SC(=Nc3ccccc3Cl)NC2=O)cc1
result: 37.2

query: Reported inhibition for O=C(/C=C\c1ccccc1)Nc1cc2ccccc2cc1NC(=O)/C=C/c1ccccc1 : what is it?
result: -0.29

query: Find the recorded inhibition belonging to Cc1nc(CC(=O)N2CCC(N3CCC(C(=O)N4CCOCC4)CC3)CC2)cs1 and report it.
result: -4.91

query: Which inhibition value belongs to CCc1cc2c(=O)c(-c3ccc4c(c3)OCCCO4)coc2cc1OC(=O)N1CCOCC1 ?
result: -8.61

query: Query (compound): COc1cc(/C=C2/SC(=Nc3ccccc3Cl)NC2=O)cc(OC)c1OC ; field requested: inhibition
result: -2.07

query: Could you tell me which inhibition is on file for CCc1cc2c(=O)c(-c3ccc4c(c3)OCCCO4)coc2cc1OC ?
result: -34.2

query: Sample O=C(N/N=C/c1ccccc1Cl)C(=O)N/N=C/c1ccccc1Cl — what was its inhibition?
result: 9.07

query: Field request: inhibition | item: CSc1nnc2c(n1)OC(c1ccc(N(C)C)cc1)Nc1ccc(Br)cc1-2 (centres undefined)
result: -2.24

query: inhibition for COc1cccc(C2=CC(c3cccc(OC)c3)n3ncnc3N2)c1 (centres undefined) ?
result: 39.1

query: I have this compound here, O=C(NC1CC1)c1cccc(N2CCc3ccccc3C2)n1 , and I need its recorded inhibition.
result: -13.8

---

- PROCEDURE TEXT: TEAD-YAP interaction inhibition, primary screen, TEAD-YAP interaction inhibitor project, luminescence, HEK-TIYL cells (AID 1259422);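 note: 0% = median of test compound wells and 100% = reference inhibitor wells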
- TEST SETTINGS: TEAD-Gal4/YAP UAS-luciferase luminescence, at 9.12 µM, stronger effect = higher value
The whole screen tested about 640,000 compounds, of which about 9,300 (1.5%) were called active. The sample holds actives, similar compounds and a random draw of the others, so the mix is not that of the screen.
PROPERTY: inhibition

query: # inhibition lookup, item O=C(N/N=C/c1cc(Br)ccc1O)c1cc(Br)ccc1O
result: -12% (inactive)

query: State the recorded inhibition for this entry: CCCNC(=O)CCCc1nc(-c2ccc(Cl)cc2)no1
result: 25.2% (inactive)

query: Look up inhibition for this molecule: CCN(CC)C(=O)C1CCCN(c2nc(NC3CC3)c3ncn(-c4ccccc4)c3n2)C1 (stereo not drawn)
result: 9.83% (inactive)

query: Please give the measured inhibition for this molecule: O=C(c1cc(-c2ccccc2Cl)on1)N1CCCCC1
result: 0.6% (inactive)

query: Any idea what inhibition was measured for COc1ccccc1N1CCN(c2c(-c3ccc(Cl)cc3)c(=O)c2=O)CC1 ?
result: 70.2% (active)

query: I'd like to know its inhibition. The molecule in question is CCOC(=O)C1=CN(Cc2ccc(F)cc2)C=C(C(=O)OCC)C1c1cccc(OCc2ccccc2)c1
result: 10.8% (inactive)

query: Need inhibition, item COc1cccc(/C=N/NC(=O)c2cc(-c3cccs3)[nH]n2)c1O
result: 68% (active)

query: Given the entry CC1CCCN(C(=O)CN2C(=O)c3ccccc3S2(=O)=O)C1 (stereo not drawn) , report its measured inhibition.
result: 32.8% (active)

query: Look up inhibition for this molecule: O=C(CN1C(=O)c2ccccc2S1(=O)=O)N1CCN(Cc2ccccc2)CC1
result: -9.54% (inactive)

query: For the molecule Cc1ccc(S(=O)(=O)N(CC(=O)N2CCCC2)c2ccc(Cl)cc2C)cc1 , what inhibition is on record?
result: 2.4% (inactive)

query: Need inhibition, item CCOc1ccc(/C=N/NC(=O)c2cc(-c3cccs3)[nH]n2)cc1
result: -4.12% (inactive)

query: // inhibition lookup, key: COc1ccc(Cl)cc1NC(=O)C(=O)Nc1ccc2nc3n(c(=O)c2c1)CCCCC3
result: 0.92% (inactive)

query: Fill in: inhibition of COc1cc2nc(/C=C/c3ccco3)oc(=O)c2cc1OC is ___
result: 0.76% (inactive)

query: State the recorded inhibition for this entry: Cn1c(=O)c2c(nc(N(CCO)CCO)n2Cc2cccc3ccccc23)n(C)c1=O
result: -5.12% (inactive)

query: So what does the record say about inhibition for CC(=O)C(C(C)=O)c1cc(Nc2ccc(C)cc2)c2c3c(onc13)-c1ccccc1C2=O ?
result: 3.02% (inactive)

query: Which inhibition is listed for CC(C)n1cnc2c(NCCc3ccc(O)cc3)nc(Nc3cccc(N(C)C)c3)nc21 ?
result: -1.31% (inactive)

query: Look up inhibition for this molecule: COc1ccccc1NC1=NC(c2ccc(Cl)cc2)N=C(N)N1 (stereo not drawn)
result: 40.4% (active)

query: I'd like to know its inhibition. The molecule in question is CCOC(=O)C1=CN(Cc2ccc(Cl)cc2)C=C(C(=O)OCC)C1c1cccc(OCc2ccccc2)c1
result: 5.47% (inactive)

query: # query: inhibition of entry COc1ccccc1Nc1nc(-c2ccc(Cl)cc2)cs1
result: -12% (inactive)

query: Entry COC1CCN(c2nc(CN3CCCC3c3nccs3)nc3ccc(Cl)cc23)CC1 (stereo not drawn) : reported inhibition = ?
result: 42.9% (active)

query: Looking for the measured inhibition of CCNC(=O)CCc1nc(-c2cccc(C)c2)no1 , can you help?
result: -13.2% (inactive)

query: // query inhibition value for entry COC(=O)C1=CN(Cc2ccc(OC)c(OC)c2)C=C(C(=O)OC)C1c1cccc(OCc2ccccc2)c1
result: 55.4% (active)

query: Data request, read-out inhibition, for COC(=O)c1ccc(CSc2cc(N3CCN(c4ccccc4F)CC3)ncn2)o1
result: -17.6% (inactive)

query: Could you share which inhibition value was measured for O=C(N/N=C/c1cc(Br)ccc1O)c1ccc(=O)[nH]n1 ?
result: 14.8% (inactive)

query: Suppose we examine the molecule CCOc1ccc(C2C(C#N)=C(N)N(c3ccc(F)cc3)C3=C2C(=O)CCC3)cc1 (stereo not drawn) ; what inhibition value has been reported?
result: -0.96% (inactive)

query: So what does the record say about inhibition for Oc1ccc(CCNc2nc(Nc3ccncn3)nc3c2ncn3Cc2ccc(C(F)(F)F)cc2)cc1 ?
result: -4.85% (inactive)

query: Given Clc1ccc(CN2CCC[C@H]2c2nc3ccc(-c4ccncc4)cc3[nH]2)cc1 , state its recorded inhibition.
result: -0.35% (inactive)

query: Any idea what inhibition was measured for O=S1(=O)Nc2cccc3cccc1c23 ?
result: 9.46% (inactive)

query: What does the data say about its inhibition? Entry: CCOC(=O)C1=C(C)NC2=C(C(=O)c3ccccc32)C1c1cc(Br)c(OC)c(OC)c1 (stereo not drawn)
result: 57.2% (active)

query: Record request: inhibition value, item CCOC(=O)C1=C(C)NC2=C(C(=O)c3ccccc32)C1c1cccc(F)c1 (stereo not drawn)
result: -6.85% (inactive)

query: GET /values?readout=inhibition&item= CC1CN(C(=S)c2ccc(Br)cc2)CC(C)O1 (stereo not drawn)
result: 6.13% (inactive)

query: Quick one: inhibition of CN1CCN(C(=O)c2cc(-c3cccs3)n(CC(=O)N3CCC(O)CC3)n2)CC1 ?
result: -2.96% (inactive)

query: // inhibition lookup, key: COC(=O)c1cc2occc2n1CC(=O)N(C)c1ccccc1
result: 4.95% (inactive)

query: Param item = COc1ccc(-n2cc(-c3ccccc3)c3c(NCCc4ccc(S(N)(=O)=O)cc4)ncnc32)cc1 ; retrieve measured inhibition.
result: 9.44% (inactive)

query: Dear colleague, I am looking for the recorded inhibition of the following molecule: CC(C(=O)N(C)c1ccccc1)N1C(=O)NC(c2ccccc2)(c2ccccc2)C1=O (stereo not drawn)
result: 6.96% (inactive)

query: Looking for the measured inhibition of COc1ccc(OC)c(N/C=C(/C#N)c2nc(-c3ccc(OC)c(OC)c3)cs2)c1 , can you help?
result: 0.19% (inactive)

query: What value of inhibition has been reported for the following molecule? CCN1C(=O)N/C(=C/c2ccccc2OCc2ccc(C(=O)O)cc2)C1=O
result: -1.26% (inactive)

query: # lookup: inhibition of CC(C)(C)NC(=O)CCc1nc(-c2ccc(C(C)(C)C)cc2)no1
result: 50.6% (active)
